Listed here: items and their measured AUC of ventral prostate weight (duration of androgenic activity).
test system: castrate Sprague-Dawley male rats; assay: Duration of androgenic activity after a single subcutaneous injection (ventral prostate weight, AUC); type: in vivo, rat; settings: single subcutaneous injection of 1.2 mg in aqueous suspending vehicle; 14 weeks
attribute_measured: AUC of ventral prostate weight (duration of androgenic activity)

1) CCCCCCCCCCOC(=O)O[C@H]1CC[C@H]2[C@H]3[C@H]([C@@H](C)C[C@]12C)[C@H]1CCC(=O)C=C1C[C@H]3C [CDB-4719] | 2764 mg·week
2) CCCCCCCCCCCCOC(=O)OC1CC[C@H]2[C@@H]3CCC4=CC(=O)CC[C@@H]4[C@H]3[C@@H](C)C[C@]12C (stereo partly shown) [CDB-4754] | 974 mg·week
3) COC(=O)O[C@H]1CC[C@H]2[C@H]3[C@H]([C@@H](C)C[C@]12C)[C@H]1CCC(=O)C=C1C[C@H]3C [CDB-4718] | 789 mg·week
4) CC1C[C@@]2(C)C(=CC[C@@H]2OC(=O)OC23CC4CC(CC(C4)C2)C3)[C@H]2[C@H]1[C@H]1CCC(=O)C=C1C[C@H]2C (stereo partly shown) [CDB-4750A] | 759 mg·week
